Cited source for all entries: PubChem BioAssay AID1259407

# Tested on: CCRIS mutagenicity, Ames/micronucleus/aberration tests
# MEASUREMENT_DESCRIPTION: CCRIS mutagenicity studies
# CONDITION_DESCRIPTION: Test System: AMES SALMONELLA TYPHIMURIUM; Strain/Indicator: TA100; Metabolic Activation: RAT, LIVER, S-9, AROCLOR 1254; Method: STANDARD PLATE
Calls of active or inactive are those of the source. How the calls were made is not given here.
Form entry, call: pick from active, inactive

Study these solved cases before continuing.
COMPOUND: NC(=Nc1ccccc1)Nc1ccccc1
LABEL_VALUE: inactive

COMPOUND: O=P1(NCCCl)OCCCN1CCCl (centres undefined)
LABEL_VALUE: active

COMPOUND: N=c1c2ncn(C(c3ccccc3)(c3ccccc3)c3ccccc3)c2ncn1O
LABEL_VALUE: inactive

COMPOUND: C=C(C#N)C(=O)OC
LABEL_VALUE: active

COMPOUND: O=C(/C=N/O)Nc1ccccc1
LABEL_VALUE: inactive

COMPOUND: CCS(=O)(=O)CCn1c([N+](=O)[O-])cnc1C
LABEL_VALUE: active

COMPOUND: Cc1ccccn1
LABEL_VALUE: inactive

COMPOUND: Cc1ccccc1-c1ccc(N)cc1
LABEL_VALUE: active

COMPOUND: C=C(C)C(=O)OCCCCC
LABEL_VALUE: inactive

COMPOUND: Cc1cc(Cl)ccc1OCC(=O)O
LABEL_VALUE: inactive

Task: Hello, I am checking results. What call was entered for CCC(CCC(C)O)COC(=O)CCCCC(=O)O (centres undefined) ?
Result: inactive

Task: Check ClCCCCl too.
Result: inactive

Task: Same read-out for N#CC1=Cc2cccc3cccc1c23 ?
Result: active

Task: Would you kindly repeat that for O=C(O)c1cc(Br)cc2cccnc12 ?
Result: inactive

Task: Also CC1(C)COC1=O ?
Result: active

Task: Proceed to CP1(C)=NP(C)(C)=NP(C)(C)=N1
Result: inactive

Task: Param item: ClC=C(Cl)Cl
Result: inactive

Task: Similarly, OCCCc1ccccc1 ?
Result: inactive

---

# Tested on: CCRIS mutagenicity, Ames/micronucleus/aberration tests
# MEASUREMENT_DESCRIPTION: CCRIS mutagenicity studies
# CONDITION_DESCRIPTION: Test System: AMES SALMONELLA TYPHIMURIUM; Strain/Indicator: TA100; Metabolic Activation: RAT, LIVER, S-9, AROCLOR 1254 (10%); Method: PREINCUBATION
Active and inactive are the calls of the source. How the calls were made is not given here.
MEASURE: mutagenic call

SAMPLE_SMILES: Oc1ccc2ccccc2c1N=Nc1ccccc1
TARGET_SYSTEM: CCRIS mutagenicity, Ames/micronucleus/aberration tests
MEASURE: mutagenic call
RESULT: inactive; negative
//
SAMPLE_SMILES: OC[P+](CO)(CO)CO
TARGET_SYSTEM: CCRIS mutagenicity, Ames/micronucleus/aberration tests
MEASURE: mutagenic call
RESULT: inactive; negative
//
SAMPLE_SMILES: Cc1cccc(N)c1C
TARGET_SYSTEM: CCRIS mutagenicity, Ames/micronucleus/aberration tests
MEASURE: mutagenic call
RESULT: inactive; negative
//
SAMPLE_SMILES: CC(C)COC(=O)c1ccccc1N
TARGET_SYSTEM: CCRIS mutagenicity, Ames/micronucleus/aberration tests
MEASURE: mutagenic call
RESULT: inactive; negative

// below: mutagenic call requested for another compound
Task: Fill in the blank: the reported mutagenic call of O=P(OCCCl)(OCCCl)OCCCl is ____.
Result: inactive; negative

---

# Test system: CCRIS mutagenicity, Ames/micronucleus/aberration tests
# MEASUREMENT_DESCRIPTION: CCRIS mutagenicity studies
# CONDITION_DESCRIPTION: Test System: AMES SALMONELLA TYPHIMURIUM; Strain/Indicator: TA100; Metabolic Activation: RAT, LIVER, S-9, AROCLOR 1254; Method: STANDARD PLATE
Calls of active or inactive are those of the source. The rule behind the calls is not given here.
Lab note: assign the record to one of active, inactive

Illustrative cases are given below, each with its answer.
COMPOUND: c1ccc2nccnc2c1
LABEL_VALUE: inactive
--
COMPOUND: CC(C)C(=O)N(O)c1ccc(Cl)cc1
LABEL_VALUE: inactive
--
COMPOUND: Nc1ccc2c(c1)C(=O)c1ccccc1C2=O
LABEL_VALUE: active
--
COMPOUND: NC(=O)CC1CO1 (stereo unspecified)
LABEL_VALUE: active
--
COMPOUND: CC(=O)Nc1ccc(/C=C/C(=O)c2ccccc2)cc1
LABEL_VALUE: active

Task: Dear all, I need the recorded test outcome for Cc1nn(C)c(NC(=O)CNCCCN2CCCCC2C)c1C(=O)c1ccccc1F (stereo unspecified) , thank you.
Result: inactive
